Let's look at some compounds and their measured log10 of Ki.
target: Adrenergic receptor beta (Rattus norvegicus, UniProt P18090+P10608+P26255); experiment: Binding affinity against beta adrenergic receptor from rat heart tissues was determined; assay type: protein assay
A value of 2 here means Ki of 100 in nM, since values are log10.

// known answers, use as guide
- Compound: "CC1(NC(=O)CBr)CCC(C(C)(C)NCC(O)COc2cccc3[nH]ccc23)CC1 (stereo unspecified)"
  log10 of Ki: 1.35
- Compound: "CC1(NCC(O)COc2cccc3[nH]c(C#N)cc23)CCC(C(C)(C)NC(=O)CBr)CC1 (stereo unspecified)"
  log10 of Ki: -0.21
- Compound: "C=CCc1ccccc1OCC(O)CNC1(C)CCC(C(C)(C)NC(=O)CBr)CC1 (stereo unspecified) [BROMOACETYL ALPRENOLOL MENTHANE]"
  log10 of Ki: 2.59

Prompt: Query log10 of Ki on Adrenergic receptor beta (Rattus norvegicus, UniProt P18090+P10608+P26255) for CC1(NCC(O)COc2cccc3[nH]ccc23)CCC(C(C)(C)NC(=O)CBr)CC1 (stereo unspecified)
Response: -0.34

Prompt: Give recorded log10 of Ki with Adrenergic receptor beta (Rattus norvegicus, UniProt P18090+P10608+P26255) for the following compound: CC1(NC(=O)CBr)CCC(C(C)(C)NCC(O)COc2cccc3[nH]c(C#N)cc23)CC1 (stereo unspecified)
Response: 0.26

Prompt: Query for Adrenergic receptor beta (Rattus norvegicus, UniProt P18090+P10608+P26255): what log10 of Ki does the record show for C=CCc1ccccc1OCC(O)CNC(C)(C)C1CCC(C)(NC(=O)CBr)CC1 (stereo unspecified) ?
Response: 1.49
